molecular target: CXCR4 receptor (Homo sapiens, UniProt P61073); assay: primary 1536 w β-arrestin recruitment assay (CXCR4-bla U2OS cells, SDF-1α from R&D systems); format: cell-based; set-up: host or cells: Tango CXCR4-bla U2OS cells
Sequence (P61073 whole entry): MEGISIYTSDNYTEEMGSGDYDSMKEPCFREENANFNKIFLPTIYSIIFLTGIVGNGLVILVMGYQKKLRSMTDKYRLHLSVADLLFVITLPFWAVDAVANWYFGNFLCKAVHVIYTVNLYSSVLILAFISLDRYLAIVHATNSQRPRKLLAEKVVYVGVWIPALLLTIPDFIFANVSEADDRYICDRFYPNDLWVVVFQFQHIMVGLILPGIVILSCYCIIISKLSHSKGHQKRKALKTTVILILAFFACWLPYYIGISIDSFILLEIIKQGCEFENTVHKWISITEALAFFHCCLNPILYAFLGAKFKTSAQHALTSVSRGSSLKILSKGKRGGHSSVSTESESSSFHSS
Measured endpoint: EC50 (µM)

- Compound: "Cc1cccc(C)c1NS(=O)(=O)c1ccc(-c2cnc(C3CC3)o2)cc1 [Compound 14]"
  Uom: "µM"
  Reported measurement: 0.6
- Compound: "COc1cc(NS(=O)(=O)c2ccc(-c3cnc(C4CC4)o3)cc2)cc(OC)c1 [Compound 21]"
  Uom: "µM"
  Reported measurement: 5.6
- Compound: "Cc1cccc(NS(=O)(=O)c2ccc(-c3cnc(C4CC4)o3)cc2)c1C [Compound 10]"
  Uom: "µM"
  Reported measurement: 1.9
- Compound: "Cc1ccc(C)c(NS(=O)(=O)c2ccc(-c3cnc(C4CC4)o3)cc2)c1 [Compound 13]"
  Uom: "µM"
  Reported measurement: 0.7
- Compound: "O=S(=O)(Nc1ccccc1Cl)c1ccc(-c2cnc(C3CC3)o2)cc1 [Compound 6]"
  Uom: "µM"
  Reported measurement: 22

(a) CCc1ccccc1NS(=O)(=O)c1ccc(-c2cnc(C3CC3)o2)cc1 [Compound 3]
(b) CCOc1ccccc1NS(=O)(=O)c1ccc(-c2cnc(C3CC3)o2)cc1 [Compound 5]
IN: Pick one: a or b . Which has the bigger EC50 number? Provide the label of your selected option as the answer.
OUT: a

(P) COc1ccc(OC)c(NS(=O)(=O)c2ccc(-c3cnc(C4CC4)o3)cc2)c1 [Compound 19]
(Q) Cc1ccccc1NS(=O)(=O)c1ccc(-c2cnc(C3CC3)o2)cc1 [Compound 2]
IN: Given the listed items, does P or Q have the lesser reported EC50? Provide the label of your selected option as the answer.
OUT: P
(P: 1.1 µM, Q: 5.9 µM)

====

Molecular target: UniProtKB P61073
Experiment: primary 1536 w β-arrestin recruitment assay (CXCR4-bla U2OS cells, SDF-1α from R&D systems)
Assay type: cell-based
Design: host or cells: Tango CXCR4-bla U2OS cells
Method: In our effort to identify CXCR4 activators from the NIH Molecular Library Small Molecule Repository (MLSMR), we developed a primary screening assay to measure β-arrestin recruitment to the activated G-protein coupled receptor (GPCR) by a Florescence Resonance Energy Transfer (FRET) in U2OS cells, overexpressing the CXCR4 receptor engineered with a β-lactamase (bla) reporter system. CXCR4-bla cells plated in 1536 w were stimulated in the presence of 10 µM compound concentration. […]
Measured endpoint: EC50 (µM)

- Chem smiles: "COc1ccccc1NS(=O)(=O)c1ccc(-c2cnc(C3CC3)o2)cc1"
  EC50 (µM): 6.1

(I) COc1ccc(Cl)cc1NS(=O)(=O)c1ccc(-c2cnc(C3CC3)o2)cc1
(II) Cc1ccc(NS(=O)(=O)c2ccc(-c3cnc(C4CC4)o3)cc2)c(C)c1
(III) COc1ccc(F)cc1NS(=O)(=O)c1ccc(-c2cnc(C3CC3)o2)cc1
(IV) CCOc1ccc(NS(=O)(=O)c2ccc(-c3cnc(C4CC4)o3)cc2)cc1
(V) COc1ccc(C)cc1NS(=O)(=O)c1ccc(-c2cnc(C3CC3)o2)cc1
IN: Order by EC50, ascending. # format: label list in the order the request specifies
OUT: V, I, II, III, IV

====

biological target: UniProt P61073; assay: primary 1536 w β-arrestin recruitment assay (CXCR4-bla U2OS cells, SDF-1α from R&D systems); type: cell-based; parameters: host or cells: Tango CXCR4-bla U2OS cells; settings: U2OS
Measured endpoint: Emax (%)

// below: answered compounds
- Chem smiles: "COc1cc(NS(=O)(=O)c2ccc(-c3cnc(C4CC4)o3)cc2)cc(OC)c1"
  Uom: "%"
  Emax: 48
- Chem smiles: "Cc1cccc(C)c1NS(=O)(=O)c1ccc(-c2cnc(C3CC3)o2)cc1"
  Uom: "%"
  Emax: 45
- Chem smiles: "Cc1cc(C)cc(NS(=O)(=O)c2ccc(-c3cnc(C4CC4)o3)cc2)c1"
  Uom: "%"
  Emax: 39

(I) Cc1ccc(C)c(NS(=O)(=O)c2ccc(-c3cnc(C4CC4)o3)cc2)c1
(II) Cc1ccccc1NS(=O)(=O)c1ccc(-c2cnc(C3CC3)o2)cc1
IN: Pick one: I or II . Which has the bigger Emax number? Provide the label of your selected option as the answer.
OUT: I

====

biological target: UniProt:P61073; experiment: 384 w β-arrestin recruitment assay (Tango CXCR4-bla U2OS cells, PeproTech SDF-1α); type: cell-based; parameters: host or cells: Tango CXCR4-bla U2OS cells
Measured endpoint: EC50 (nM)
Give a bare numeral; the unit nM is implied.

IN: Dear colleague, I am looking for the recorded EC50 of the following compound: `COc1ccc(OC)c(NS(=O)(=O)c2ccc(-c3cnc(C4CC4)o3)cc2)c1`
OUT: 500

====

Molecular target: UniProt P61073
Assay: primary 1536 w β-arrestin recruitment assay (CXCR4-bla U2OS cells, SDF-1α from R&D systems)
Assay type: cell-based
Design: host or cells: Tango CXCR4-bla U2OS cells
Settings: U2OS
Description: In our effort to identify CXCR4 activators from the NIH Molecular Library Small Molecule Repository (MLSMR), we developed a primary screening assay to measure β-arrestin recruitment to the activated G-protein coupled receptor (GPCR) by a Florescence Resonance Energy Transfer (FRET) in U2OS cells, overexpressing the CXCR4 receptor engineered with a β-lactamase (bla) reporter system. CXCR4-bla cells plated in 1536 w were stimulated in the presence of 10 µM compound concentration. […]
Measured endpoint: Emax (%)

- Chem smiles: "CCc1ccccc1NS(=O)(=O)c1ccc(-c2cnc(C3CC3)o2)cc1"
  Reported measurement: 38
- Chem smiles: "COc1ccc(F)cc1NS(=O)(=O)c1ccc(-c2cnc(C3CC3)o2)cc1"
  Reported measurement: 42
- Chem smiles: "COc1ccc(OC)c(NS(=O)(=O)c2ccc(-c3cnc(C4CC4)o3)cc2)c1"
  Reported measurement: 60
- Chem smiles: "O=S(=O)(Nc1ccccc1Cl)c1ccc(-c2cnc(C3CC3)o2)cc1"
  Reported measurement: 35
- Chem smiles: "COc1ccccc1NS(=O)(=O)c1ccc(-c2cnc(C3CC3)o2)cc1"
  Reported measurement: 45

====

EC50 for assorted compounds
target: CXCR4 receptor (Homo sapiens); assay: primary 1536 w β-arrestin recruitment assay (CXCR4-bla U2OS cells, SDF-1α from R&D systems); type: cell-based; parameters: host or cells: Tango CXCR4-bla U2OS cells

// below: answered compounds
- Chem smiles: "O=S(=O)(Nc1ccccc1)c1ccc(-c2cnc(C3CC3)o2)cc1"
  Reported measurement: "> 80 µM"
- Chem smiles: "COc1cccc(NS(=O)(=O)c2ccc(-c3cnc(C4CC4)o3)cc2)c1"
  Reported measurement: "> 80 µM"

IN: Dear colleague, I am looking for the recorded EC50 of the following compound: `COc1ccc(NS(=O)(=O)c2ccc(-c3cnc(C4CC4)o3)cc2)cc1OC`
OUT: > 80 µM

====

EC50 for assorted molecules
Biological target: CXCR4 receptor (Homo sapiens, UniProt P61073)
Test: primary 1536 w β-arrestin recruitment assay (CXCR4-bla U2OS cells, SDF-1α from R&D systems)
Type: cell-based
Parameters: host or cells: Tango CXCR4-bla U2OS cells
Procedure: In our effort to identify CXCR4 activators from the NIH Molecular Library Small Molecule Repository (MLSMR), we developed a primary screening assay to measure β-arrestin recruitment to the activated G-protein coupled receptor (GPCR) by a Florescence Resonance Energy Transfer (FRET) in U2OS cells, overexpressing the CXCR4 receptor engineered with a β-lactamase (bla) reporter system. CXCR4-bla cells plated in 1536 w were stimulated in the presence of 10 µM compound concentration. […]

// below: answered molecules
- Molecule: "O=S(=O)(Nc1ccccc1F)c1ccc(-c2cnc(C3CC3)o2)cc1 [Compound 7]"
  System under test: "CXCR4 receptor (Homo sapiens, UniProt P61073)"
  Measured endpoint: "EC50"
  Reported measurement: "> 80 µM"
- Molecule: "Cc1cc(C)cc(NS(=O)(=O)c2ccc(-c3cnc(C4CC4)o3)cc2)c1 [Compound 15]"
  System under test: "CXCR4 receptor (Homo sapiens, UniProt P61073)"
  Measured endpoint: "EC50"
  Reported measurement: "3.1 µM"

Now, please, on to the next molecule.
IN: Dear colleague, I am looking for the recorded EC50 of the following molecule: Cc1ccc(NS(=O)(=O)c2ccc(-c3cnc(C4CC4)o3)cc2)cc1C [Compound 11]
OUT: > 10 µM

====

target: UniProt:P61073; test: primary 1536 w β-arrestin recruitment assay (CXCR4-bla U2OS cells, SDF-1α from R&D systems); assay type: cell-based; set-up: host or cells: Tango CXCR4-bla U2OS cells; conditions: U2OS
Measured endpoint: Emax (%)

- Chem smiles: "CCOc1ccccc1NS(=O)(=O)c1ccc(-c2cnc(C3CC3)o2)cc1"
  Uom: "%"
  Reported measurement: 46
- Chem smiles: "COc1ccc(Cl)cc1NS(=O)(=O)c1ccc(-c2cnc(C3CC3)o2)cc1"
  Uom: "%"
  Reported measurement: 47
- Chem smiles: "CCOc1ccc(NS(=O)(=O)c2ccc(-c3cnc(C4CC4)o3)cc2)cc1"
  Uom: "%"
  Reported measurement: 38
- Chem smiles: "Cc1cccc(NS(=O)(=O)c2ccc(-c3cnc(C4CC4)o3)cc2)c1C"
  Uom: "%"
  Reported measurement: 40
- Chem smiles: "Cc1ccc(NS(=O)(=O)c2ccc(-c3cnc(C4CC4)o3)cc2)c(C)c1"
  Uom: "%"
  Reported measurement: 38
- Chem smiles: "COc1ccc(C)cc1NS(=O)(=O)c1ccc(-c2cnc(C3CC3)o2)cc1"
  Uom: "%"
  Reported measurement: 48
